biological target: L-lactate dehydrogenase (Plasmodium falciparum (isolate CDC / Honduras)) (UniProt Q27743); experiment: PfLDH activity inhibition – cell lysate, 3D7 strain, counter-screen for P. falciparum growth inhibition project (AID 2304);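 further: 0% = vehicle and 100% = reference inhibitor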; conditions: P. falciparum 3D7 crude extract, LDH APAD/NBT absorbance; at 2 µM; hits give high values
Sequence (Q27743 whole entry, looked up): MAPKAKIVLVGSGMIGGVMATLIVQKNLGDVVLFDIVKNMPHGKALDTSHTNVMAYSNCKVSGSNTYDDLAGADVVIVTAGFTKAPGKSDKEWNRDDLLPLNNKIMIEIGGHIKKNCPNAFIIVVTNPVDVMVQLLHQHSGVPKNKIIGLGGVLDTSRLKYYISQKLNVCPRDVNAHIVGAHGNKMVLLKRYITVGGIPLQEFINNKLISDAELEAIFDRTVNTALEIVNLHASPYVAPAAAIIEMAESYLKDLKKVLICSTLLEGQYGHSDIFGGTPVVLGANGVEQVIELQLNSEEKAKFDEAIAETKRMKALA
Reported inhibition values for a set of compounds
QUANTITY MEASURED: inhibition (%)

> print(dat)
                                    compound                             tested.target  quantitative.result
 1  CCn1ncc(Cl)c1CN(C)S(=O)(=O)c1ccc2ccccc2c1  L-lactate dehydrogenase (Plasmodium falciparum (isolate CDC / Honduras)) (UniProt Q27743)                   -2
 2  O=C(NC1CCC(N2CCCC(OCc3ccccc3)C2)CC1)c1cc2ccccc2[nH]1 (stereo not given)  L-lactate dehydrogenase (Plasmodium falciparum (isolate CDC / Honduras)) (UniProt Q27743)                   -1
 3  CCOC(=O)c1[nH]c(-c2cc(Cl)nc(Cl)c2)nc1NC(=S)NCCCN1CCOCC1  L-lactate dehydrogenase (Plasmodium falciparum (isolate CDC / Honduras)) (UniProt Q27743)                    3
 4  CC(=O)Nc1ccc(C(=O)Nc2ccc(-c3cccc(-c4nc5ccc(C(F)(F)F)cc5[nH]4)c3)cc2)cn1  L-lactate dehydrogenase (Plasmodium falciparum (isolate CDC / Honduras)) (UniProt Q27743)                   -2
 5  Cc1cccc2[nH]c(-c3cccc(-c4cccc(NC(=O)COc5ccccc5C(N)=O)c4)c3)nc12  L-lactate dehydrogenase (Plasmodium falciparum (isolate CDC / Honduras)) (UniProt Q27743)                   -2
 6  O=C(Nc1cccnc1)c1ccc(-c2cc3ccncc3cc2OC2CCNCC2)s1  L-lactate dehydrogenase (Plasmodium falciparum (isolate CDC / Honduras)) (UniProt Q27743)                    1
 7  O=C(Nc1cc2cc(-c3ccc(CN4CCCCC4)cc3)ccc2n2cnnc12)NC1CCCC1  L-lactate dehydrogenase (Plasmodium falciparum (isolate CDC / Honduras)) (UniProt Q27743)                   -4
 8  CN1CCN(c2ccc(Nc3ncc([N+](=O)[O-])c(Nc4ccccc4O)n3)cc2)CC1  L-lactate dehydrogenase (Plasmodium falciparum (isolate CDC / Honduras)) (UniProt Q27743)                   -3
 9  CON=C1CCC(Cn2ccnc2)(c2ccc(Cl)cc2Cl)CC1 (stereo not given)  L-lactate dehydrogenase (Plasmodium falciparum (isolate CDC / Honduras)) (UniProt Q27743)                   -5
10  COC(=O)c1ccc2c(c1)nc(Nc1cccc(F)c1)n2CC(O)c1ccccn1 (stereo not given)  L-lactate dehydrogenase (Plasmodium falciparum (isolate CDC / Honduras)) (UniProt Q27743)                   -1
